- SYSTEM_TESTED: T1, human G-protein-coupled receptor family C group 5 member D (GPRC5D) (human, UniProt Q9NZD1 1-345)
- T1 construct: whole, on cells; also called human GPRC5D protein
- ASSAY_COMMENT: FACS, CHO-K1/human GPRC5D, chimeric antibody
Threshold check on Span: at or above 400000 gives Fulfilled, strictly below gives Not fulfilled.

Has 34-XI (antibody, V domains shown, also called 34D3H1 (chimeric)) VH: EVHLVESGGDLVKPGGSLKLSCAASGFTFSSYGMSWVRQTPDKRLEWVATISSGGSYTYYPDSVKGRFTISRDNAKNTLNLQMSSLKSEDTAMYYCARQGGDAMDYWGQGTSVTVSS VL: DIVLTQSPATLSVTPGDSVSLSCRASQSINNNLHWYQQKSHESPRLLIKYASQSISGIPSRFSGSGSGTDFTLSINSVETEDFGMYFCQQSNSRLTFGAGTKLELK a recorded Span greater than or equal to 400000?
Fulfilled

// query: 58F9G10-XI (antibody, V domains shown, also called 58F9G10 (chimeric); 58-XI) VH: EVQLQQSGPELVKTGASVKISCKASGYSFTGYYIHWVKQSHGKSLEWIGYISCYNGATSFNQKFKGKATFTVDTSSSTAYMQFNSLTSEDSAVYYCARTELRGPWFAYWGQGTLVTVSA VL: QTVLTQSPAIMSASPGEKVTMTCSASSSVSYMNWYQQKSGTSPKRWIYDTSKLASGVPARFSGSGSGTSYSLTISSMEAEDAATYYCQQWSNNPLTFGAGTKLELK
Fulfilled

// query: 29B2C10 (chimeric) (antibody, V domains shown) VH: EVQLQQSGPELVKPGASMKLSCKASGYSFTGYTMHWVKQSHGENLEWIGLINPYNGGTNYNQKFKGKATLTVDKSSSTAYMELLSLTSEDSAVYYCSRWGLRRAMDYWGQGTSVTVSS VL: DIVMTQSQKFMSTSVGDRVSVTCKASQNVGSNVAWYQQKPGQSPKALIYSASYRYSGVPDRFTGNGSGTDFTLTISNVQSEDLAEYFCQQYYNSPWTFGGGTKLEIK
Fulfilled

// query: 6G10D9-XI (antibody, V domains shown, also called 6G10D9 (chimeric); 6G1009-X1) VH: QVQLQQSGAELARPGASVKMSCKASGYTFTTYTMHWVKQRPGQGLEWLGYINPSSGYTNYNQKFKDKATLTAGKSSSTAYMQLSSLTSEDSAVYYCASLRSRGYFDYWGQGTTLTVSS VL: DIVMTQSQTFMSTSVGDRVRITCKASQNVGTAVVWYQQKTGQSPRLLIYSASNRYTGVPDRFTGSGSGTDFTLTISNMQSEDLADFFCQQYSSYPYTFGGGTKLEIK
Fulfilled

// query: 40A5B2 (chimeric) (antibody, V domains shown) VH: EVQLQQSGPELVKPGASVKMSCKASGYTFTRNIMHWVKQKPGQGLEWIGYINPYNAGSKYNEKFKGKATLTSDISSSTAYMELSSLTSEDSAVYYCAREEVYYRYGAWFAYWGHGTLVTVSA VL: DIVLTQSPASLAVSLGQRATISCRASQSVSTSSYSYMHWYQQKPGQPPKLLIKYASNLESGVPARFSGSGSGTDFTLNIHPVEEEDTATYYCQHSWEIPRTFGGGTKLEIK
Fulfilled

// query: 38A10E9A11 (chimeric) (antibody, V domains shown, also called 38A9E10A11) VH: QVQLQQSGAELARPGASVKMSCKASGYTFTTYTMHWVKQRPGQGLEWIGYINPSSGYTNYNQKFKDKATLTAGKSSSTAYMQLSSLTSEDSAVYYCASLRSRGYFDYWGRGTTLTVSS VL: DIVMTQSQKFLSTSVGDRVSITCKASQNVGTAVAWYQQKPGQSPKLLIYSASNRYTGVPDRFTGSGSGTDFTLTISNMQSEDLAGYFCQQYSSYPYTFGGGTKLEIK
Not fulfilled
